Molecular target: JAK3 (Homo sapiens, UniProt P52333)
Sequence (P52333 whole entry): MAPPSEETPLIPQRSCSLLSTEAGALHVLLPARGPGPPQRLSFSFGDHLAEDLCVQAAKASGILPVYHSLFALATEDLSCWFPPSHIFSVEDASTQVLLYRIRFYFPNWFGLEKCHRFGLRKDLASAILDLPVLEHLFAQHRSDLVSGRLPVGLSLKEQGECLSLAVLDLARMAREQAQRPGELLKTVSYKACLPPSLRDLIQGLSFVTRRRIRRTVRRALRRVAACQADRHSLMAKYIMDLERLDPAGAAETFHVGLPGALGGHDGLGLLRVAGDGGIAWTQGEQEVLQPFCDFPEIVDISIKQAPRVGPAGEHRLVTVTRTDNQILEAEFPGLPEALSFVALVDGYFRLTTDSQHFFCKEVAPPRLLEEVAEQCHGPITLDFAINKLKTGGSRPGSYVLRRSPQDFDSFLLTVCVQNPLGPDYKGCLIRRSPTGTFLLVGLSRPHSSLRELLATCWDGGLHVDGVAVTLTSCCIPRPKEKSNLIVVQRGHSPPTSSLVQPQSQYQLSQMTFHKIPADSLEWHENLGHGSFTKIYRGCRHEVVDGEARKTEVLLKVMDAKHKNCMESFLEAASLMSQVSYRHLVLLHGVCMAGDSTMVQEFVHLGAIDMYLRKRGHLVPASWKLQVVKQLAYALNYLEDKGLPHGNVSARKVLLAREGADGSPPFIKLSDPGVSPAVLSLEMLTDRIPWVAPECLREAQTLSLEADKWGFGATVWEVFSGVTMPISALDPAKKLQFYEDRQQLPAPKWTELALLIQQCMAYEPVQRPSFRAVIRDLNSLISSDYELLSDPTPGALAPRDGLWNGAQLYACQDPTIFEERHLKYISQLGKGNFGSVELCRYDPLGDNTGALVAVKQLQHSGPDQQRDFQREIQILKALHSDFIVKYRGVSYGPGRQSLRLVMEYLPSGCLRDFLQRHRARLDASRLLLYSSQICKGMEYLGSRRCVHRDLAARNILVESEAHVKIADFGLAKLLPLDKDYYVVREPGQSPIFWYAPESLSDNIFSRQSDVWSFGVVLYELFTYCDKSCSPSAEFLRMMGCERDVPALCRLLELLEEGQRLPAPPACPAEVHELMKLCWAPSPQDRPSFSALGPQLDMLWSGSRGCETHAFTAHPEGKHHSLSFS
Assay: JAK kinase activity, homogeneous time-resolved fluorescence (JAK3 reaction system)
Format: biochemical
Settings: ATP 2 μM, JAK3 protein 0.04 ng/μL; read-out: JAK 3 activity
experimental_readout: IC50

Hello, please tell me recorded IC50 for this one: Cc1cc2ccc1-c1nc(ncc1C)Nc1ccc(Cl)c(c1)COCCCCNC2=O 1000 to 10000 nM

Consider the compound Cc1cc2ccc1-c1nc(ncc1C)Nc1cccc(c1)COCCCCNC2=O and give its recorded IC50. 1000 to 10000 nM

Please indicate IC50 recorded for O=C1NCCCCOCc2cc(ccc2N2CCOCC2)Nc2nccc(n2)-c2ccc1cc2[N+](=O)[O-] 101 to 1000 nM

Consider the compound C[C@@H]1CCOCc2cc(ccc2OC2CC2)Nc2nccc(n2)-c2ccc(cc2N)C(=O)NC1 and give its recorded IC50. < 10 nM

Item Cc1cc2ccc1-c1ccnc(n1)Nc1ccc(N3CCCCC3)c(c1)COCCCCNC2=O : provide IC50 11 to 100 nM

Supply recorded IC50 for Nc1cc2ccc1-c1ccnc(n1)Nc1ccc(OCC3Cc4ccccc4O3)c(c1)COCCCCNC2=O (centres unmarked) here. 11 to 100 nM

Entry O=C1NCCCCOCc2cc(ccc2N2CCOCC2)Nc2nccc(n2)-c2ccc1cc2F needs its IC50 filled in; supply it. 11 to 100 nM

Provide only the value of recorded IC50 for CC(C)COc1ccc2cc1COCCCCNC(=O)c1ccc(c([N+](=O)[O-])c1)-c1ccnc(n1)N2 101 to 1000 nM

Tell me measured IC50 for COc1cc(F)cc(C#N)c1COc1ccc2cc1COCCCCNC(=O)c1ccc(c(N)c1)-c1ccnc(n1)N2 please. 11 to 100 nM

Check the records and state IC50 for CN(C)C(=O)C(C)(C)Oc1ccc2cc1COCCCCNC(=O)c1ccc(c(N)c1)-c1ccnc(n1)N2 101 to 1000 nM

Name the recorded IC50 of the item CN1CCN(c2ccc3cc2COCCCCNC(=O)c2ccc(c([N+](=O)[O-])c2)-c2ccnc(n2)N3)CC1 in your answer. 101 to 1000 nM

Read off the recorded IC50 for Nc1cc2ccc1-c1ccnc(n1)Nc1ccc(Oc3cccnc3)c(c1)COc1ccc(cc1)NC2=O 11 to 100 nM

* * *

Dear all, this message contains pIC50 results, target or system TYK2 (Homo sapiens, UniProt P29597).
pIC50: −log10 of the molar value.

[[record]]
compound = "O=C1NCCCCOCc2cc(ccc2N2CCCCC2)Nc2nccc(n2)-c2ccc1cc2F [Example 29]"
study_system = "TYK2 (Homo sapiens, UniProt P29597)"
measured_result = "5.00 to 6.00"

[[record]]
compound = "Nc1cc2ccc1-c1ccnc(n1)Nc1cc(F)c(F)c(c1)COCCCCNC2=O [Example 94]"
study_system = "TYK2 (Homo sapiens, UniProt P29597)"
measured_result = "< 5.00"

[[record]]
compound = "COc1cc(F)cc(F)c1COc1ccc2cc1COCC[C@@H](C)CNC(=O)c1ccc(c(N)c1)-c1ccnc(n1)N2 [Example 188]"
study_system = "TYK2 (Homo sapiens, UniProt P29597)"
measured_result = "5.00 to 6.00"

[[record]]
compound = "Nc1cc2ccc1-c1ccnc(n1)Nc1ccc(OCc3cccc4c3CCO4)c(c1)COCCCCNC2=O [Example 151]"
study_system = "TYK2 (Homo sapiens, UniProt P29597)"
measured_result = "5.00 to 6.00"


Fill: pIC50 (TYK2 (Homo sapiens, UniProt P29597)) for this compound COc1cnc2nc1-c1ccc(c(F)c1)C(=O)NCCCCOCc1cc(ccc1N1CCOCC1)N2 [Example 58] 6.00 to 7.00

Lab note: TYK2 (Homo sapiens, UniProt P29597) assay, enter pIC50 for C[C@@H]1CCOCc2cc(ccc2OC2CCCC2)Nc2nccc(n2)-c2ccc(cc2N)C(=O)NC1 [Example 185] here 5.00 to 6.00

System TYK2 (Homo sapiens, UniProt P29597). Read-out pIC50. Item O=C1NCCCCOCc2cc(ccc2OCC2COC2)Nc2nccc(n2)-c2ccc1cc2[N+](=O)[O-] [Example 163] . Report value. < 5.00
